details: Crystal 2; DSC
± gives the expanded uncertainty stated by the source.
observed property: Triple point temperature
Reply with the number, then its unit.

CC1(C)[C@@H]2CC[C@@]1(C)C(=O)C2 [d-camphor]    372.3 ± 3.1 K
CC1(C)[C@@H]2CC[C@@]1(C)[C@@H](O)C2 [d-borneol]    346.7 ± 3.1 K
CC1(C)[C@H]2CC[C@]1(C)C(=O)C2 [(1S)-1,7,7-trimethylbicyclo[2.2.1]heptan-2-one]    375.3 ± 3.1 K

Now let's try a different one.
In: Determine from records and report Triple point temperature for CC1(C)[C@H]2CC[C@]1(C)[C@H](O)C2 [(1S-endo)-1,7,7-trimethylbicyclo[2.2.1]heptan-2-ol]
Out: 347.4 ± 3.1 K

----------
conditions: Crystal 3; DSC
observed property: Triple point temperature (K)
One number for each entry, in K.

CC1(C)[C@H]2CC[C@]1(C)C(=O)C2 [(1S)-1,7,7-trimethylbicyclo[2.2.1]heptan-2-one]    246.3
CC1(C)[C@@H]2CC[C@@]1(C)C(=O)C2    242.8
CC1(C)[C@@H]2CC[C@@]1(C)[C@@H](O)C2    213.5

In: Determine from records and report Triple point temperature for CC1(C)[C@H]2CC[C@]1(C)[C@H](O)C2 [(1S-endo)-1,7,7-trimethylbicyclo[2.2.1]heptan-2-ol]
Out: 212.3

----------
test: Molar enthalpy of transition or fusion; settings: Crystal 2; DSC
Answer each item with its documented Molar enthalpy of transition or fusion.
Give bare numbers, in kcal/mol.

Worked cases, Molar enthalpy of transition or fusion given:
CC1(C)[C@@H]2CC[C@@]1(C)C(=O)C2    0.0359
CC1(C)[C@H]2CC[C@]1(C)[C@H](O)C2 [(1S-endo)-1,7,7-trimethylbicyclo[2.2.1]heptan-2-ol]    0.715
CC1(C)[C@@H]2CC[C@@]1(C)[C@@H](O)C2    0.724

In: Determine from records and report Molar enthalpy of transition or fusion for CC1(C)[C@H]2CC[C@]1(C)C(=O)C2 [(1S)-1,7,7-trimethylbicyclo[2.2.1]heptan-2-one]
Out: 0.0382

----------
conditions: Crystal 1; DSC
Answer each item with its documented Triple point temperature.
Numbers only, in K.

Please look at the items below and tell me Triple point temperature for each one, in order.
1. CC1(C)[C@H]2CC[C@]1(C)C(=O)C2 [(1S)-1,7,7-trimethylbicyclo[2.2.1]heptan-2-one]
2. CC1(C)[C@@H]2CC[C@@]1(C)[C@@H](O)C2 [d-borneol]
3. CC1(C)[C@@H]2CC[C@@]1(C)C(=O)C2 [d-camphor]
4. CC1(C)[C@H]2CC[C@]1(C)[C@H](O)C2 [(1S-endo)-1,7,7-trimethylbicyclo[2.2.1]heptan-2-ol]

Out:
[453.9, 481.6, 452.7, 479.7]

----------
Answer each item with its documented Molar enthalpy of transition or fusion.
test: Molar enthalpy of transition or fusion; conditions: Crystal 3; DSC
Answers are plain numbers, in kJ/mol.

Worked cases, Molar enthalpy of transition or fusion given:
CC1(C)[C@H]2CC[C@]1(C)C(=O)C2 [(1S)-1,7,7-trimethylbicyclo[2.2.1]heptan-2-one]    13.2
CC1(C)[C@H]2CC[C@]1(C)[C@H](O)C2 [(1S-endo)-1,7,7-trimethylbicyclo[2.2.1]heptan-2-ol]    0.72
CC1(C)[C@@H]2CC[C@@]1(C)[C@@H](O)C2    0.75

Now let's try a different one.
In: Determine from records and report Molar enthalpy of transition or fusion for `CC1(C)[C@@H]2CC[C@@]1(C)C(=O)C2`
Out: 11.2
